biological target: Recombinant human JAK2 catalytic domain (Homo sapiens, UniProt O60674); construct: amino acids 808-1132; catalog number PV4210; GST; purchased Invitrogen PV4210; test: JAK2 Ulight-JAK1 peptide assay; format: biochemical; conditions: average; read-out: IC50 (average)
Sequence (O60674 808-1132): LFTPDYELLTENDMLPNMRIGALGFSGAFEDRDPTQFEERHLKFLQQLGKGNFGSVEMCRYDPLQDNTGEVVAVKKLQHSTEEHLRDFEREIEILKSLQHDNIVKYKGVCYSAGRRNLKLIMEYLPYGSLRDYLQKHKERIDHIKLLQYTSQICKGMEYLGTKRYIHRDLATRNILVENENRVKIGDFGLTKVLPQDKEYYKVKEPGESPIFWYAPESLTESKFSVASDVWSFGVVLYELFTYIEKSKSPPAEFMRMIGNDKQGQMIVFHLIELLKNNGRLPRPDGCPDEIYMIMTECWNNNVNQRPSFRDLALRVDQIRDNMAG

| CHEM SMILES | IC50 [µM] |
| --- | --- |
| Nc1nc2cccc(-c3ccc(CN4CCS(=O)(=O)CC4)cc3)n2n1 | 0.397 |

###

experiment: Single dose pharmacokinetics in animals, dog; type: in vivo, Beagle dogs; settings: Beagle, plasma, male, Formula I 25 mg/kg single oral dose, read-out: AUC
OBSERVED PROPERTY: AUC (µg·h/mL)

| CHEM SMILES | QUANTITATIVE READOUT |
| --- | --- |
| Nc1nc2cccc(-c3ccc(CN4CCS(=O)(=O)CC4)cc3)n2n1 | 114 |

###

assay: Single dose pharmacokinetics in animals, dog; format: in vivo, Beagle dogs; conditions: Beagle, plasma, 10 mg/kg, male, administration of Formula I, oral, read-out: Apparent terminal half life (converted)

| CHEM SMILES | half-life [h] |
| --- | --- |
| Nc1nc2cccc(-c3ccc(CN4CCS(=O)(=O)CC4)cc3)n2n1 | 9 |

###

Assay: Single dose pharmacokinetics in human
Assay type: in vivo
Details: plasma, po; human; after Formula II 10 mg single dose, capsules; read-out: exposure (expressed as AUC)
Description: Serial blood samples were collected over 72 h to determine plasma concentrations of the compounds according to Formula II and Formula I using a validated liquid chromatography-mass spectrometry/mass spectrometry (LC-MS/MS) method with a limit of quantification of 1.00 ng/mL. PK parameters were assessed using a statistical analysis package (WinNonLin (Pharsight, Sunnyvale, Calif.: CA 94086, USA). […]
Form field: AUC (one value per entry).
OBSERVED PROPERTY: AUC (ng·h/mL)

| COMPOUND | OBSERVED PROPERTY | UNITS OF MEASURE | QUANTITATIVE READOUT |
| --- | --- | --- | --- |
| O=C(Nc1nc2cccc(-c3ccc(CN4CCS(=O)(=O)CC4)cc3)n2n1)C1CC1 [Formula II] | AUC | ng·h/mL | 128 |
| Nc1nc2cccc(-c3ccc(CN4CCS(=O)(=O)CC4)cc3)n2n1 [Formula I] | AUC | ng·h/mL | 2890 |

###

experiment: Single dose pharmacokinetics in animals, dog; format: in vivo, Beagle dogs; conditions: Beagle, plasma, male, Formula I 50 mg/kg single oral dose, read-out: AUC
OBSERVED PROPERTY: AUC (µg·h/mL)

| CHEM SMILES | QUANTITATIVE READOUT |
| --- | --- |
| Nc1nc2cccc(-c3ccc(CN4CCS(=O)(=O)CC4)cc3)n2n1 | 290 |

###

test: Single dose pharmacokinetics in animals, rat; type: in vivo, Sprague-Dawley rats; conditions: Sprague-Dawley, plasma, female, Formula I 180 mg/kg single oral dose, read-out: AUC

| CHEM SMILES | AUC |
| --- | --- |
| Nc1nc2cccc(-c3ccc(CN4CCS(=O)(=O)CC4)cc3)n2n1 | 541 µg·h/mL |

###

test: Single dose pharmacokinetics in animals, rabbit; format: in vivo, New Zealand White rabbits; details: New Zealand White, plasma, female, Formula I 250 mg/kg single oral dose, read-out: AUC
OBSERVED PROPERTY: AUC

| CHEM SMILES | OBSERVED PROPERTY | RESULT |
| --- | --- | --- |
| Nc1nc2cccc(-c3ccc(CN4CCS(=O)(=O)CC4)cc3)n2n1 | AUC | 1030 µg·h/mL |

###

test: Single dose pharmacokinetics in animals, rat; assay type: in vivo, Sprague-Dawley rats; details: Sprague-Dawley, plasma, 20 mg/kg, administration of Formula I, oral, read-out: Apparent terminal half life (converted)

| CHEM SMILES | half-life, h |
| --- | --- |
| Nc1nc2cccc(-c3ccc(CN4CCS(=O)(=O)CC4)cc3)n2n1 | 7 |
